- tested_system: PRMT5-MEP50 enzyme (Homo sapiens)
- Construct: One virus expresses full length human PRMT5 with Flag-tag at N-terminus; Flag (N); purchased Charles River (Argenta); host or cells: insect cells (Sf9), baculovirus co-infection
- procedure_text: In vitro assay 1b: PRMT5-MEP50 high throughput mass spectrometer assay (SAH formation), 1.25 nM enzyme
- Format: biochemical
- condition_info: 1.25 nM enzyme, 1 μM SAM, 0.3 μM H2A, 30° C., 120 min; averaged values; read-out: pIC50 Assay 1b (converted)
Exercise: state measured IC50 for each of the molecules provided.
Numeric answer only, unit nM assumed.

Task: What value of IC50 has been reported for the following molecule? CC(=O)Nc1cn2ccc(CC[C@H]3C[C@@H](n4ccc5c(N)ncnc54)[C@H](O)[C@@H]3O)cc2n1
Output: 63.1

Task: Also check COc1ncnc2c1ccn2[C@@H]1C[C@H](CCc2ccn3c(C)cnc3c2)[C@@H](O)[C@H]1O
Output: 10

* * *

- tested_system: PRMT5-MEP50 enzyme (Homo sapiens)
- Construct: One virus expresses full length human PRMT5 with Flag-tag at N-terminus; Flag (N); purchased Charles River (Argenta); host or cells: insect cells (Sf9), baculovirus co-infection
- procedure_text: In vitro assay 1b: PRMT5-MEP50 high throughput mass spectrometer assay (SAH formation), 1.25 nM enzyme
- Assay type: biochemical
- condition_info: 1.25 nM enzyme, 1 μM SAM, 0.3 μM H2A, 30° C., 120 min; averaged values; read-out: pIC50 Assay 1b (converted)
// classify: if (IC50 < 300 nM) yes (1) else no (0)

Task: A record lists Nc1ncnc2c1ccn2[C@@H]1C[C@H](Cn2ccc3ccncc32)[C@@H](O)[C@H]1O [Compound 75] . Is its IC50 below 300 nM?
Output: yes (1)

Task: Another: Nc1ncnc2c1ccn2[C@@H]1C[C@H](CCCc2cccnc2)[C@@H](O)[C@H]1O [Compound 42]
Output: no (0)

Task: Let us now turn to Nc1cc(CCCC[C@H]2C[C@@H](n3ccc4c(N)ncnc43)[C@H](O)[C@@H]2O)ccn1 [Compound 57]
Output: yes (1)

Task: Try this compound too: Nc1cc2cccc(CCC[C@H]3C[C@@H](n4ccc5c(N)ncnc54)[C@H](O)[C@@H]3O)c2cn1 [Compound 41]
Output: no (0)

Task: Do the same for Cc1cnc2cc(CC[C@H]3C[C@@H](n4ccc5c(N)ncnc54)[C@H](O)[C@@H]3O)c(F)cn12 [Compound 12] please
Output: yes (1)

Task: Quick one: Nc1ncnc2c1ccn2[C@@H]1C[C@H](CCCc2cccc3cccnc23)[C@@H](O)[C@H]1O [Compound 52]
Output: no (0)

Task: And then Nc1ncnc2c1ccn2[C@@H]1C[C@H](CCCc2cnc3c(N)cccc3c2)[C@@H](O)[C@H]1O [Compound 44] , what is it?
Output: no (0)

* * *

- tested_system: PRMT5-MEP50 enzyme (Homo sapiens, UniProt O14744)
- Construct: One virus expresses full length human PRMT5 with Flag-tag at N-terminus; Flag (N); purchased Charles River (Argenta); host or cells: insect cells (Sf9), baculovirus co-infection
- Sequence (O14744 whole entry): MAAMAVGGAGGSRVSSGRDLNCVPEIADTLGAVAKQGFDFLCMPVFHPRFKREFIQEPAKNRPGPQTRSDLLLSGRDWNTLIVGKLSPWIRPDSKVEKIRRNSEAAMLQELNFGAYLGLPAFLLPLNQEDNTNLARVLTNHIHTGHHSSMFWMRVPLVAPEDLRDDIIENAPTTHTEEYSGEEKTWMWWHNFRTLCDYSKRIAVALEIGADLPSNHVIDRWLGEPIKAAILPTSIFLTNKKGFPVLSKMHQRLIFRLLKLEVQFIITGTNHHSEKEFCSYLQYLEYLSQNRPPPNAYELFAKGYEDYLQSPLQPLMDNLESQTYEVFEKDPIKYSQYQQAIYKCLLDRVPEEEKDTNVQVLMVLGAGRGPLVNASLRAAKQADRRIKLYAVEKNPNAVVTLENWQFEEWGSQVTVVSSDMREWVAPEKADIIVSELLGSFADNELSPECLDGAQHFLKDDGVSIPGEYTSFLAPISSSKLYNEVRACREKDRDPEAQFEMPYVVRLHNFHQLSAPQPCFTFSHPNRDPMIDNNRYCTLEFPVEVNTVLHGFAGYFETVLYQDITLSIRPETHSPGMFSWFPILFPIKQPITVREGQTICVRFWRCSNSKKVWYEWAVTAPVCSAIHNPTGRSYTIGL
- Sequence (Q9BQA1 whole entry partner): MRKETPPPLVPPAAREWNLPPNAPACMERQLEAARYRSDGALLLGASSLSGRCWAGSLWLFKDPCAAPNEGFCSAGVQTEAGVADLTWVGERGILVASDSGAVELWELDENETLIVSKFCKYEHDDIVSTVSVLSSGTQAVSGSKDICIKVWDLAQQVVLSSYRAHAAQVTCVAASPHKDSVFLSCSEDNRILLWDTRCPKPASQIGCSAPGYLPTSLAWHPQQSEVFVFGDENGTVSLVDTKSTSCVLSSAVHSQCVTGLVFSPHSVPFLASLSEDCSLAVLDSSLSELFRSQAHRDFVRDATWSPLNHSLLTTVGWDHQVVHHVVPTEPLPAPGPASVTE
- procedure_text: In vitro assay 1b: PRMT5-MEP50 high throughput mass spectrometer assay (SAH formation), 1.25 nM enzyme
- Assay type: biochemical
endpoint_label: pIC50
Conceptually, pIC50 converts a concentration in mol/L into minus its log10.

Task: Enter reported pIC50 observed with PRMT5-MEP50 enzyme (Homo sapiens, UniProt O14744) for Nc1ccc(CC[C@H]2C[C@@H](n3ccc4c(N)ncnc43)[C@H](O)[C@@H]2O)cn1
Output: 8.30
